- target or system: SMARCA2 (Homo sapiens)
- Sequence (P51531 whole entry): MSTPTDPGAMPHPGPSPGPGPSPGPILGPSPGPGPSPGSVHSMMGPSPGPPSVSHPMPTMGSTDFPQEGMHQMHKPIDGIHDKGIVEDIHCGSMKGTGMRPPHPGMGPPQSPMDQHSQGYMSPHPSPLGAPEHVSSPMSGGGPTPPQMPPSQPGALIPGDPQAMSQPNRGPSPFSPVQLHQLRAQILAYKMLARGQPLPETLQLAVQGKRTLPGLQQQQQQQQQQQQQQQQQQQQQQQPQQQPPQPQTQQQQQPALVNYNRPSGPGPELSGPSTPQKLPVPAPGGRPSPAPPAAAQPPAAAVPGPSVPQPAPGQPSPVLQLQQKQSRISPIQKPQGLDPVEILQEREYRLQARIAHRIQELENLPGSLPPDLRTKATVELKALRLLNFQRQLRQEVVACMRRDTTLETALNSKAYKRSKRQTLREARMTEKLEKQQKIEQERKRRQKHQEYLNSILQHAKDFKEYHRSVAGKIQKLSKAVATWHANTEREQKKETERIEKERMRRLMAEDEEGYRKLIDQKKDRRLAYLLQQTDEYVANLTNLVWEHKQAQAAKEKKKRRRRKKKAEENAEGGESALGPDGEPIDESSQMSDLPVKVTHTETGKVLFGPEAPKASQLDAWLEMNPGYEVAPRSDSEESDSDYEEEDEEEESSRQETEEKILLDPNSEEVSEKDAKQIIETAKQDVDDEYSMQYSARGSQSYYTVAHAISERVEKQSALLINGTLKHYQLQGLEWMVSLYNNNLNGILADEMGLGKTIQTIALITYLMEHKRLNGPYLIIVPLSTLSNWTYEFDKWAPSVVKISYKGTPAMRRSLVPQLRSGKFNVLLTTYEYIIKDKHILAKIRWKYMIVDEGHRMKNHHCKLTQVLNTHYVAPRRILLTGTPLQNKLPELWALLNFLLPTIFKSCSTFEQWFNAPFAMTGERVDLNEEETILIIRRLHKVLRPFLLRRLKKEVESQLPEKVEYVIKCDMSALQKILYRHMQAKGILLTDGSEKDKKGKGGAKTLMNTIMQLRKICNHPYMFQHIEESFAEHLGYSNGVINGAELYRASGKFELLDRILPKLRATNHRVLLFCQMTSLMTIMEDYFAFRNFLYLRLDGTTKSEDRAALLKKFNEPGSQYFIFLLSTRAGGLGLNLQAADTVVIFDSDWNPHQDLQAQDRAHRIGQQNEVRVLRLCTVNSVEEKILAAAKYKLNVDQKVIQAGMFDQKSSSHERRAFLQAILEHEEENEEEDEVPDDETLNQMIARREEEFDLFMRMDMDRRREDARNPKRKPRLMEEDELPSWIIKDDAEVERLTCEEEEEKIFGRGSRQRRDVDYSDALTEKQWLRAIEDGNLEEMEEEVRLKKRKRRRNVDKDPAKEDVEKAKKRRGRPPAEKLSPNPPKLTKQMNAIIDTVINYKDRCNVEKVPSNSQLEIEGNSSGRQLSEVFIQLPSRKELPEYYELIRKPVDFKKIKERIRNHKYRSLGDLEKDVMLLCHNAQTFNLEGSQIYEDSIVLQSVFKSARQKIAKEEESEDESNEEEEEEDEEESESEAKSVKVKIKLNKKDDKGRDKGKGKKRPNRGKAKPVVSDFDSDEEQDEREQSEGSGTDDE
- assay details: MSD SMARCA2 degradation in NCI-H1299 cell line (24 h)
- Type: cell-based
- Set-up: HC: NCI-H1299 cells treated with DMSO; host or cells: NCI-H1299
- recorded conditions: NCI-H1299, NCI-H1299 cells
assay endpoint: Dmax

Worked examples, 5 molecules total:
Cn1c(=O)n(C2CCC(=O)NC2=O)c2ccc(CCCCCOc3cccc(CN4CCN(c5cc(-c6ccccc6O)nnc5N)CC4)c3)cc21 (centres unmarked)	< 50%
Cn1c(=O)n(C2CCC(=O)NC2=O)c2cccc(CCCCCOc3cccc(CN4CCN(c5cc(-c6ccccc6O)nnc5N)CC4)c3)c21 (centres unmarked)	50 to 70%
Cn1c(=O)n(C2CCC(=O)NC2=O)c2ccc(CCCCCCCN3CCCC(n4cc(-c5cc(-c6ccccc6O)nnc5N)cn4)C3)cc21 (centres unmarked)	< 50%
Cn1c(=O)n(C2CCC(=O)NC2=O)c2cccc(C#CCCCCCc3cn(Cc4cccc(N5C[C@H]6C[C@@H]5CN6/C=C/C(=O)c5ccccc5O)n4)nn3)c21 (some centres unmarked)	< 50%
Cn1c(=O)n(C2CCC(=O)NC2=O)c2ccc(CCCN3CCC[C@@H](Cn4cc(-c5cc(-c6ccccc6O)nnc5N)cn4)C3)cc21 (some centres unmarked)	50 to 70%

Input Cn1c(=O)n(C2CCC(=O)NC2=O)c2ccc(CN3CC(OCCCN4CCN(Cc5ccc(-c6cc(-c7ccccc7O)nnc6N)cc5)CC4)C3)cc21 (centres unmarked) . Output Dmax: 50 to 70%

Input Nc1nnc(-c2ccccc2O)cc1N1CCN(c2ccc(CNCCCOCCCc3ccc4c(c3)oc(=O)n4C3CCC(=O)NC3=O)cc2)CC1 (centres unmarked) . Output Dmax: 50 to 70%

Input Cc1ncsc1-c1ccc(CNC(=O)[C@@H]2C[C@@H](O)CN2C(=O)[C@@H](NC(=O)CCCCN2CCC(Cn3cc(-c4cc(-c5ccccc5O)nnc4N)cn3)CC2)C(C)(C)C)cc1 . Output Dmax: < 50%
